System: MCF7
Test: Cytotoxicity against human MCF7 cells assessed as cell viability after 48 hrs by MTT assay
Type: functional, cell-based
Settings: MCF7, 48 h
Measured metric: IC50

Exercise: Any idea what its IC50 is? The molecule is "COC(=O)c1nc(-c2cn(Cc3ccc4ccc5cccc6ccc3c4c56)nn2)n(COCCOC(C)=O)n1"
Key: ≤ 10 µM
